- condition parameters: 298.15 K; 101.33 kPa; Liquid; Vibrating tube method
readout label: mass density (kg/m3)

> print(dat)
   given.smiles  reported.value
1         CCCCO           805.8
2         CCC#N           776.8
3        CC(C)O           780.9
4        CCCCCO           810.8
5            CO           786.6
6           CCO           785.1
7          CCCO           799.6
